target: hsst1 (Homo sapiens); construct: expressed in transfected cells; assay: Somatostatin receptor radioligand binding assay, hsst1; conditions: CHO-K1 membranes, [125I-Tyr11]SS-14; read-out: hsst1 Ki
Sequence (P30872 whole entry): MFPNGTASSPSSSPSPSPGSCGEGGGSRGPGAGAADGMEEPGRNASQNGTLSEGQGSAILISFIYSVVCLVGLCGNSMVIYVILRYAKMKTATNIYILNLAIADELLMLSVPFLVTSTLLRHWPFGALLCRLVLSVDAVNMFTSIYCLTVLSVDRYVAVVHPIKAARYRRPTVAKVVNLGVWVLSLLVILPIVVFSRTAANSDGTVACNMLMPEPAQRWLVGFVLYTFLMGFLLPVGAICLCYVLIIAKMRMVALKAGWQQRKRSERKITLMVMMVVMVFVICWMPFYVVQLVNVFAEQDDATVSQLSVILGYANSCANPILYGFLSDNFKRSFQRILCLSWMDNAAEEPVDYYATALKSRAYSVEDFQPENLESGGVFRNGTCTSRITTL
Numbered stars: 1 amine (or outer) side, 2 acyl side, 3 side chain; on linkers, the order of the positions; unused ones are H or OH. Bridge positions count the residues as written; N and C are the ends. Square brackets hold non-standard residues; d marks the D form. Peptide text beside a SMILES is read from it. * marks the point of attachment. X3 = CCCN1C[C@H](CSCC(=O)Oc2ccc(C[C@H](N[*:1])C(=O)[*:2])cc2I)C[C@@H]2c3cccc4[nH]cc(c34)C[C@H]21; X1 = CCCN1C[C@H](CSCC(=O)*)C[C@@H]2c3cccc4[nH]cc(c34)C[C@H]21; Abu = CC[C@H](N)C(=O)O; AEEA = NCCOCCOCC(=O)O
Result type: pKi
The meaning of pKi here: minus log10 of the concentration in molar units.

Some solved cases for reference:
Molecule	pKi
CCCN1C[C@H](CSCC(=O)N[C@H](Cc2ccccc2)C(=O)N[C@H]2CSSC[C@@H](C(=O)N[C@H](C(N)=O)[C@@H](C)O)NC(=O)[C@H](C(C)C)NC(=O)[C@H](CCCCN)NC(=O)[C@@H](Cc3c[nH]c4ccccc34)NC(=O)[C@H](Cc3ccc(OC(=O)CSC[C@@H]4C[C@@H]5c6cccc7[nH]cc(c67)C[C@H]5N(CCC)C4)c(I)c3)NC2=O)C[C@@H]2c3cccc4[nH]cc(c34)C[C@H]21 [Example 3]	6.00
CCCN1C[C@H](CSCC(=O)NCCN2CCN(CC(=O)N[C@H](Cc3ccccc3)C(=O)N[C@H]3CSSC[C@@H](C(=O)N[C@H](C(N)=O)[C@@H](C)O)NC(=O)[C@H](CC)NC(=O)[C@H](CCCCN)NC(=O)[C@@H](Cc4c[nH]c5ccccc45)NC(=O)[C@H](Cc4ccc(O)cc4)NC3=O)CC2)C[C@@H]2c3cccc4[nH]cc(c34)C[C@H]21 [Example 24]	6.00
C=CCN1C[C@H](C(=O)N(CCCN(C)CC(=O)N[C@H](Cc2ccccc2)C(=O)N[C@H]2CSSC[C@@H](C(=O)N[C@H](C(N)=O)[C@@H](C)O)NC(=O)[C@H](CC)NC(=O)[C@H](CCCCN)NC(=O)[C@@H](Cc3c[nH]c4ccccc34)NC(=O)[C@H](Cc3ccc(O)cc3)NC2=O)C(=O)NCC)C[C@@H]2c3cccc4[nH]cc(c34)C[C@H]21 [Example 6]	6.29

Task: Query pKi on hsst1 (Homo sapiens) for CCCN1C[C@H](CSCC(=O)N[C@H](Cc2ccccc2)C(=O)NCCOCCOCC(=O)N[C@H](Cc2ccccc2)C(=O)N[C@H]2CSSC[C@@H](C(=O)N[C@H](C(N)=O)[C@@H](C)O)NC(=O)[C@H](C(C)C)NC(=O)[C@H](CCCCN)NC(=O)[C@@H](Cc3c[nH]c4ccccc34)NC(=O)[C@H](Cc3ccc(OC(=O)CSC[C@@H]4C[C@@H]5c6cccc7[nH]cc(c67)C[C@H]5N(CCC)C4)c(I)c3)NC2=O)C[C@@H]2c3cccc4[nH]cc(c34)C[C@H]21 [Example 5] (X1-[dF][AEEA][dF]C[X3][dW]KVCT-NH2; disulfide 4-9)
Result: 6.00

Task: Query pKi on hsst1 (Homo sapiens) for CCCN1C[C@H](CSCC(=O)NCCCC[C@H](NC(=O)CSC[C@@H]2C[C@@H]3c4cccc5[nH]cc(c45)C[C@H]3N(CCC)C2)C(=O)N[C@H](Cc2ccc(O)cc2)C(=O)N[C@H](Cc2ccc(O)cc2)C(=O)N[C@H]2CSSC[C@@H](C(=O)N[C@H](C(N)=O)[C@@H](C)O)NC(=O)[C@H](CC)NC(=O)[C@H](CCCCN)NC(=O)[C@@H](Cc3c[nH]c4ccccc34)NC(=O)[C@H](Cc3ccc(O)cc3)NC2=O)C[C@@H]2c3cccc4[nH]cc(c34)C[C@H]21 [Example 10] (X1-K(X1)[dY][dY]CY[dW]K[Abu]CT-NH2; disulfide 4-9)
Result: 6.26
